Reference for the values: paper PMC11067372

test system: P. falciparum 3D7; assay: In vitro inhibition of P. falciparum 3D7 (SYBR Green I-based fluorescence assay); type: cell-based, Plasmodium falciparum; conditions: Plasmodium falciparum; Table S2; P. falciparum 3D7; value used for SAR analysis; read-out: IC50
readout.kind: IC50 (µM)
Numeric answer only, unit µM assumed.

Please review the following examples before continuing.
- compound.structure: "Oc1ccc(O)c(-c2cnc(-c3cc(O)ccc3O)o2)c1"
  readout.kind: "IC50"
  numeric.readout: 12.6
- compound.structure: "Oc1ccccc1-c1nnc(-c2cccc(O)c2O)s1"
  readout.kind: "IC50"
  numeric.readout: 6.41

## Input Record request: IC50 value, item COc1cccc(-c2ncc(-c3ccccc3N(C)C)o2)c1OC
## Output 54.2

## Input I have this compound here, COc1cccc(-c2ncc(-c3ccc4ccccc4c3)o2)c1OC , and I need its recorded IC50.
## Output 62.4

## Input Reported IC50 for COCOc1ccccc1-c1cnc(-c2cccc(OC)c2OC)o1 : what is it?
## Output 18.2

## Input Which IC50 value belongs to Oc1ccccc1-c1cnc(-c2cccc(O)c2O)o1 ?
## Output 11

## Input For the compound Oc1ccccc1-c1coc(-c2cccc(O)c2O)n1 , what IC50 is on record?
## Output 4.63

## Input I would be grateful if you could share the reported IC50 for COc1cccc(-c2ncc(-c3ccc(OC)c(OC)c3OC)o2)c1OC .
## Output 51.1

## Input Requested read-out: IC50. Entry: COc1cccc(-c2ncc(-c3ccccc3OCc3ccccc3)o2)c1OC
## Output 6.25

## Input Would you mind telling me what IC50 value was observed for CC(=O)Oc1ccc(OC(C)=O)c(-c2cnc(-c3ccccc3)o2)c1 ?
## Output 3.38

---

system: P. falciparum 3D7; experiment: IC50 speed assay (24, 48, 72 h); type: cell-based, Plasmodium falciparum; conditions: Plasmodium falciparum, 3D7, 24 h, read-out: IC50 24 h
readout.kind: IC50 (nM)
Your answer is read as nM, so omit the unit and give the number.

## Input I have this compound here, CCN(CC)CCCC(C)Nc1ccnc2cc(Cl)ccc12 (stereo not shown) [Chloroquine (diphosphate), chloroquine diphosphate, reference compound] , and I need its recorded IC50.
## Output 46

---

tested on: P. falciparum K1; assay: In vitro inhibition of P. falciparum K1 (SYBR Green I-based fluorescence assay); type: cell-based; settings: Plasmodium falciparum; multidrug-resistant strain K1; 72 h incubation; average ± SD, three independent experiments; read-out: IC50 P. falciparum K1
Please respond with Yes when measured IC50 is strictly beneath 4 µM, and with No in all other cases.

These recorded examples may help you get a feel for the data.
- molecule: "CC(=O)Oc1ccc(OC(C)=O)c(-c2cnc(-c3cc(OC(C)=O)ccc3OC(C)=O)o2)c1"
  group: "No"
- molecule: "COc1cccc(-c2ncc(-c3ccccc3O)o2)c1OC"
  group: "Yes"

## Input Here's an entry: Oc1ccccc1-c1coc(-c2cccc(O)c2O)n1 . Is its IC50 below 4 µM?
## Output Yes

## Input Threshold test, IC50 < 4 µM: Oc1ccccc1-c1cnc(-c2cccc(O)c2O)o1
## Output No

## Input Lab note: confirm whether the reported IC50 for this molecule is below 4 µM, equality not counting. molecule: COc1cccc(-c2ncc(-c3ccccc3OCc3ccccc3)o2)c1OC
## Output No

## Input Hello, is IC50 of the following molecule strictly smaller than 4 µM? Oc1ccc(O)c(-c2cnc(-c3ccccc3)o2)c1 [Compound 7, 2-phenyl-5-(2″,5″-hydroxyphenyl)oxazole]
## Output Yes

## Input Input CC(=O)Oc1ccccc1-c1cnc(-c2cccc(OC(C)=O)c2OC(C)=O)o1 ; condition: IC50 strictly below 4 µM. Does it hold?
## Output No

## Input Would you kindly verify if IC50 of CC(=O)Oc1ccc(OC(C)=O)c(-c2cnc(-c3ccccc3)o2)c1 is strictly less than 4 µM?
## Output Yes

---

tested on: P. falciparum 3D7; assay: In vitro inhibition of P. falciparum 3D7 (SYBR Green I-based fluorescence assay); type: cell-based, Plasmodium falciparum; conditions: Plasmodium falciparum; Table S2; P. falciparum 3D7; value used for SAR analysis; read-out: IC50
pIC50: −log10 of the molar value.
Could you label it class 1 if measured pIC50 is 5 or higher, and class 0 otherwise?

Here's what some known entries look like.
- compound.structure: "Oc1ccccc1-c1cnc(-c2cccc(O)c2O)s1"
  group: "class 1"
- compound.structure: "Oc1ccc(O)c(-c2ncc(-c3ccccc3O)o2)c1"
  group: "class 1"

## Input Record COc1ccccc1-c1nnc(-c2cccc(OC)c2OC)o1 ; criterion: pIC50 no lower than 5. Met?
## Output class 0

## Input Quick check: does COc1ccc(OC)c(-c2cnc(-c3cc(OC)ccc3OC)o2)c1 have pIC50 greater than or equal to 5?
## Output class 0

## Input Determine whether this compound has pIC50 no lower than 5: COc1ccc(-c2ncc(-c3ccccc3OC)o2)c(OC)c1
## Output class 0

---

system: P. falciparum 3D7; assay: In vitro inhibition of P. falciparum 3D7 (SYBR Green I-based fluorescence assay); assay type: cell-based, Plasmodium falciparum; conditions: Plasmodium falciparum; Table S2; P. falciparum 3D7; value used for SAR analysis; read-out: IC50
pIC50: −log10 of the molar value.
Rule: pIC50 under 5 gives Criterion not met, otherwise Criterion met.

Reference set (4 entries):
- compound: "CCCOc1ccccc1-c1cnc(-c2cccc(OC)c2OC)o1"
  group: "Criterion not met"
- compound: "Oc1ccc(O)c(-c2cnc(-c3ccccc3)o2)c1 [Compound 7, 2-phenyl-5-(2″,5″-hydroxyphenyl)oxazole]"
  group: "Criterion met"
- compound: "COc1cccc(-c2cnc(-c3cccc(OC)c3OC)o2)c1"
  group: "Criterion not met"
- compound: "COc1ccc(-c2cnc(-c3cccc(OC)c3OC)o2)c(OC)c1"
  group: "Criterion not met"

Now look at this entry.
## Input Textbook exercise: given the entry COc1cccc(-c2ncc(-c3ccccc3[N+](=O)[O-])o2)c1OC , state whether its pIC50 is greater than or equal to 5.
## Output Criterion not met

---

test system: P. falciparum K1; test: In vitro inhibition of P. falciparum K1 (SYBR Green I-based fluorescence assay); type: cell-based; details: Plasmodium falciparum; multidrug-resistant strain K1; 72 h incubation; average ± SD, three independent experiments; read-out: IC50 P. falciparum K1
readout.kind: pIC50
When answering, recall that pIC50 equals minus log10 of the concentration in mol/L, and write that number alone.

- compound: "Oc1ccccc1-c1cnc(-c2cccc(O)c2O)s1 [Compound 40]"
  assayed.target: "P. falciparum K1"
  readout.kind: "pIC50"
  numeric.readout: 5.76

## Input Consider the compound shown here: Oc1ccc(O)c(-c2cnc(-c3cc(O)ccc3O)o2)c1 [Compound 10] What is its recorded pIC50?
## Output 5.31

---

assay: In vitro toxicity to human cells (cell viability assay); assay type: cell-based; details: human foreskin fibroblasts (HFFs), average ± SD, three independent experiments
Entries and their CC50
Numbers only here, please. The scale is µM.

Here's what some known entries look like.
- molecule: "CC(=O)Oc1ccc(OC(C)=O)c(-c2cnc(-c3ccccc3)o2)c1"
  CC50 (µM): 56.7
- molecule: "Oc1ccccc1-c1nnc(-c2cccc(O)c2O)s1"
  CC50 (µM): 160
- molecule: "Oc1ccccc1-c1nnc(-c2cccc(O)c2O)o1"
  CC50 (µM): 52.5
- molecule: "Oc1ccc(O)c(-c2cnc(-c3cc(O)ccc3O)o2)c1"
  CC50 (µM): 39.5
- molecule: "C[C@@H]1CC[C@H]2[C@@H](C)C(=O)O[C@@H]3O[C@@]4(C)CC[C@@H]1[C@]32OO4 [Artemisinin, artemisinin, reference compound]"
  CC50 (µM): 153

## Input Item under review: Oc1ccc(O)c(-c2ncc(-c3ccccc3O)o2)c1 . Reported CC50?
## Output 55.4

## Input Fill in the blank: the reported CC50 of Oc1ccccc1-c1cnc(-c2cccc(O)c2O)s1 is ____.
## Output 46.3

---

experiment: In vitro toxicity to human cells (cell viability assay); assay type: cell-based; conditions: human foreskin fibroblasts (HFFs), average ± SD, three independent experiments
Rule: measured CC50 below 60 µM gets 1 (yes); anything equal to or greater than 60 µM gets 0 (no).

Worked cases, answers included:
- compound: "Oc1ccccc1-c1coc(-c2cccc(O)c2O)n1 [Compound 47]"
  group: "0 (no)"
- compound: "Oc1ccc(O)c(-c2cnc(-c3ccccc3)o2)c1 [Compound 7, 2-phenyl-5-(2″,5″-hydroxyphenyl)oxazole]"
  group: "1 (yes)"
- compound: "CC(=O)Oc1ccccc1-c1cnc(-c2cccc(OC(C)=O)c2OC(C)=O)o1 [Compound 3]"
  group: "0 (no)"

Please examine the following record next.
## Input Field: below-cutoff. Rule: recorded CC50 strictly less than 60 µM. Subject: CC(=O)Oc1ccc(OC(C)=O)c(-c2cnc(-c3cc(OC(C)=O)ccc3OC(C)=O)o2)c1 [Compound 12]
## Output 0 (no)
